- System: HGGX39 (paediatric high-grade glioma line)
- method: growth inhibition (% activity, log2 RLU normalised to DMSO / staurosporine); higher = more growth inhibition
- cond: 33 µM
measurement_label: growth inhibition (%)
Please reply with the bare figure in % and do not write the unit itself.

compound	growth inhibition (%)
O=c1[nH]c2ccccc2n1CCCN1CCC(n2c(=O)[nH]c3cc(Cl)ccc32)CC1	3.76
CN(C)C1C(=O)C(C(N)=O)=C(O)C2(O)C(=O)C3=C(O)c4c(O)cccc4C(C)(O)C3CC12 (stereo not drawn)	1.88
CC(NC(C)(C)C)C(=O)c1cccc(Cl)c1 (stereo not drawn)	1.55

Incoming: // query growth inhibition value for entry CN1[C@@H]2C[C@@H](OC(=O)[C@H](CO)c3ccccc3)C[C@H]1[C@@H]1O[C@@H]12
Outgoing: -2.31

Incoming: // query growth inhibition value for entry C#C[C@]1(O)C=C[C@H]2[C@@H]3CCC4=CC(=O)CC[C@@H]4[C@H]3CC[C@@]21CC
Outgoing: 1.48

Incoming: // query growth inhibition value for entry C[C@]12CCC(=O)C=C1C=C[C@@H]1[C@@H]2CC[C@@]2(C)[C@H]1CC[C@@]2(O)CCC(=O)O
Outgoing: 0.878

Incoming: // query growth inhibition value for entry O=C1CC[C@@]2(O)[C@H]3Cc4ccc(O)c5c4[C@@]2(CCN3CC2CC2)[C@H]1O5
Outgoing: 3.26

Incoming: // query growth inhibition value for entry Cc1cccc(Cc2c[nH]cn2)c1C
Outgoing: 5.48
